- Test System: DNA topoisomerase 2-alpha (Homo sapiens) (UniProt P11388)
- Sequence (P11388 whole entry): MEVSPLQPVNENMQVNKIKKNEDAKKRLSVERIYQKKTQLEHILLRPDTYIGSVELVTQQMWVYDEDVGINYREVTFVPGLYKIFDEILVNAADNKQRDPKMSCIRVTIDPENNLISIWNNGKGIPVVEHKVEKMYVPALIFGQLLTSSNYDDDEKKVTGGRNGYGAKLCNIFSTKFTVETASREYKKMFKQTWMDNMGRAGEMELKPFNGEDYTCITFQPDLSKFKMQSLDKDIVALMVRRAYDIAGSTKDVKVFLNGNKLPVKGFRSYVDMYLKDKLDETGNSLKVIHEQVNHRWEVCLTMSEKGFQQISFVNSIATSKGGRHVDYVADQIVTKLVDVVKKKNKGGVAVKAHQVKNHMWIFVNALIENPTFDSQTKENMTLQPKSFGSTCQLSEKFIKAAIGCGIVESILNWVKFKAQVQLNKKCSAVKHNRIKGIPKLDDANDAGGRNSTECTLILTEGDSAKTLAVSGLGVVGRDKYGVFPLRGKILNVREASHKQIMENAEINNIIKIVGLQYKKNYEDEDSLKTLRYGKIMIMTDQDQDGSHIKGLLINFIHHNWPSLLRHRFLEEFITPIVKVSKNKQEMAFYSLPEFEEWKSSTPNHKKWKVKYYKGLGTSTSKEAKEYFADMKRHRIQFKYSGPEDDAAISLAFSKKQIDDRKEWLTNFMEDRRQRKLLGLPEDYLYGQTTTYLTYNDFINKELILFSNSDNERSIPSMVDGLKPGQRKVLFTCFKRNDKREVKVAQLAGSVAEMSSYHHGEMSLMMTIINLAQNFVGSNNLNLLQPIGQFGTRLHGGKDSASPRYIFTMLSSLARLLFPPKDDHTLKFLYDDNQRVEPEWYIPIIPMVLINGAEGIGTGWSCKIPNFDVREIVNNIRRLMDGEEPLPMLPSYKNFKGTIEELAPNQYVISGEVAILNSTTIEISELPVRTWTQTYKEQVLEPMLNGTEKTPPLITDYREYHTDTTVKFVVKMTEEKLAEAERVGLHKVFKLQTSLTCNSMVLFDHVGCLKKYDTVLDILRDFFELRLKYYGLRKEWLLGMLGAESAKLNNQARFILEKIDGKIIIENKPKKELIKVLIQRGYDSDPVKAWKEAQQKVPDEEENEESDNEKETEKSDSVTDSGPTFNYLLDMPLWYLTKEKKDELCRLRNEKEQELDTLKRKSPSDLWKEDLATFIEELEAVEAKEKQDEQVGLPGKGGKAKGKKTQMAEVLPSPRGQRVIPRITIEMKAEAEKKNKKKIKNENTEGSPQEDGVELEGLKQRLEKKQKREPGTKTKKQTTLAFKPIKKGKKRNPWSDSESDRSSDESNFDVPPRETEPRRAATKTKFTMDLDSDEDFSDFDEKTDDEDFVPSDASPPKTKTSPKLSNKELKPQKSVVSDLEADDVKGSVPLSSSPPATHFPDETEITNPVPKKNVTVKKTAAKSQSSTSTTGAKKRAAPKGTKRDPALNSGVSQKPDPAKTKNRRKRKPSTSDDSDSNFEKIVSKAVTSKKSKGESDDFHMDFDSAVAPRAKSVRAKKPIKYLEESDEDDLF
- Experiment Summary: Inhibition of human recombinant topoisomerase 2alpha assessed as relaxation of supercoiled plasmid DNA pBR322 at 100 uM after 30 mins by ethidium bromide staining based agarose gel electrophoresis
Quantity Name: inhibition (%)

COc1ccc(C2CC(c3ccccc3)=NN2C(=O)c2nc3ccccc3s2)cc1 (stereo not given) : 91.2
COc1ccccc1C1=NN(C(=O)c2ccc([N+](=O)[O-])o2)C(c2ccc([N+](=O)[O-])cc2)C1 (stereo not given) : 92.6
COc1ccc(C2CC(c3ccccc3)=NN2C(=O)c2ccco2)cc1 (stereo not given) : 91.6
COc1ccc(C2CC(c3ccc(Cl)cc3)=NN2C(=O)c2nc3ccccc3s2)cc1 (stereo not given) : 89.7
O=C(c1ccco1)N1N=C(c2ccc(Cl)cc2)CC1c1ccco1 (stereo not given) : 93.1
COc1cc([C@@H]2c3cc4c(cc3[C@@H](O[C@@H]3O[C@@H]5CO[C@@H](C)O[C@H]5[C@H](O)[C@H]3O)[C@H]3COC(=O)[C@H]23)OCO4)cc(OC)c1O [ETOPOSIDE] : 95.9
COc1ccccc1C1=NN(C(=O)c2ccncc2)C(c2ccc([N+](=O)[O-])cc2)C1 (stereo not given) : 92.8
COc1ccc(C2=NN(C(=O)c3ccco3)C(c3ccco3)C2)cc1 (stereo not given) : 94.1
COc1ccc(C2CC(c3ccccc3)=NN2C(=O)c2ccncc2)cc1 (stereo not given) : 92.5
O=C(c1ccncc1)N1N=C(c2ccc(Cl)cc2)CC1c1ccco1 (stereo not given) : 76

* * *

- Test system: T47D
- Experiment Summary: Antiproliferative activity against human T47D cells after 72 hrs by CCK8 assay
- Format: functional, cell-based
pIC50: −log10 of the molar value.
Quantity Name: pIC50

1: COc1ccc(C2CC(c3ccccc3)=NN2C(=O)c2ccco2)cc1 (stereo not given)
2: COc1ccc(C2=NN(C(=O)c3ccco3)C(c3ccco3)C2)cc1 (stereo not given)
Identify the item whose pIC50 is the smaller number: 1 or 2 Answer format: the label of the selected item.
1
(1: 4.56, 2: 5.12)

* * *

- Test system: T47D
- Experiment Summary: Antiproliferative activity against human T47D cells after 72 hrs by CCK8 assay
- Assay type: functional, cell-based
Catalogue of molecules with associated IC50

Would you please look over these solved cases?
COc1ccc(C2CC(c3ccccc3)=NN2C(=O)c2nc3ccccc3s2)cc1 (stereo not drawn) : > 50 µM
COc1ccccc1C1=NN(C(=O)c2ccncc2)C(c2ccc([N+](=O)[O-])cc2)C1 (stereo not drawn) : > 50 µM

Output IC50 of O=C(c1ccco1)N1N=C(c2ccc(Cl)cc2)CC1c1ccco1 (stereo not drawn)
> 50 µM
